For each entry below, report its TGI value.
Tested on: SK-MEL-28 melanoma
Test: NCI tumour cell line growth inhibition, 48 h
Where a SMILES comes first, the peptide text is derived from it. The star is where a group is joined. Boc = CC(C)(C)OC(=O)*; OBn = c1ccc(CO*)cc1

-- ask Name the recorded TGI for CC(C)CC(NC(=O)C(Cc1ccccc1)NC(=O)C(Cc1ccccc1)NC(=O)OC(C)(C)C)C(=O)OCc1ccccc1 (stereo not drawn) (Boc-Phe-Phe-Leu-OBn; configuration not given here) .
-- reply > 100 µM

-- ask What value of TGI has been recorded for this entry: `COc1ccc2nccc(/C=C/c3ccnc4ccc(OC)cc34)c2c1`
-- reply 73.8 µM

-- ask Quick one: TGI of `CCN(CC)c1ccc(/C=C/C=C(/C#N)C(N)=S)cc1` ?
-- reply > 100 µM

-- ask What TGI value was documented for this compound, `COc1ccc(-c2cc(-c3ccccc3)nc3c2CC(=O)Nc2ccccc2-3)cc1OC` ?
-- reply > 100 µM

-- ask So what does the record say about TGI for `Cc1nn(-c2ccccc2)c2nc3ccc(Cl)cc3c(-c3ccccc3)c12` ?
-- reply > 100 µM

-- ask Suppose we examine the compound `CN(C)c1ccc(/C=N/NC(=O)c2cccc3ccccc23)c(Cl)c1` ; what TGI value has been reported?
-- reply > 100 µM

-- ask Look at this compound and give its reported TGI. CC(=O)OC1[C@@H](OC(C)=O)CN(OCc2ccccc2)C[C@H]1OC(C)=O (stereo partly specified)
-- reply > 100 µM

-- ask So what's the measured TGI for this one? CCc1ncnc2cc(OCC3CO3)c(OC)cc12 (stereo unspecified)
-- reply 37.4 µM

-- ask For `CCN(CC)CCNC(=O)c1nn(-c2ccc(Cl)cc2)c2c1CCc1cc(OC)ccc1-2` , what is its reported TGI?
-- reply 4.23 µM

-- ask Suppose we examine the compound `CCCCCCCCCCCCCCCCOc1ccc(/C=C/C2=[N+](CCCl)CCO2)cc1` ; what TGI value has been reported?
-- reply > 100 µM

-- ask Consider the compound NC(=O)C1N=NSC1NC(=O)c1ccc([N+](=O)[O-])cc1 (stereo unspecified) and give its measured TGI.
-- reply > 100 µM

-- ask Which TGI reading was recorded for the compound `COc1ccc(C#CC2=C(c3cc(OC)c(OC)c(OC)c3)C(=O)OC2)cc1` ?
-- reply > 50 µM

-- ask So what does the record say about TGI for CC(C)(SCc1ccccc1)C(N)C(=O)O (stereo unspecified) ?
-- reply > 100 µM

-- ask What value of measured TGI is listed for `CC1(C)CC(=O)c2c(ccc(C(=O)C[C@@H](N)CO)c2N)O1` ?
-- reply 34.5 µM

-- ask What does the data say about its TGI? Entry: `COc1ccc(-c2nnc(Nc3nc(O)c(C4=c5cc(F)ccc5=NC4=O)s3)o2)cc1`
-- reply > 100 µM

-- ask Entry `CC(=O)OCCOCCN1CCN(c2c(O)c3c(c(O)c2Cl)C(=O)C=CC3=O)CC1` : reported TGI = ?
-- reply 2.22 µM

-- ask // TGI lookup, key: CC(=O)OC1OC(c2ccoc2)C[C@@]12C1CCC3O[C@]3(C)[C@]1(C)C[C@H](OC(C)=O)[C@H]2C (stereo partly specified)
-- reply > 75 µM

-- ask // TGI lookup, key: `O=c1[nH]c(=O)n2n1C1C=CC2CC1`
-- reply > 100 µM

-- ask # lookup: TGI of O=C1CSC(C(N=Nc2ccc(Cl)cc2)c2nc3ccccc3[nH]2)=N1 (stereo unspecified)
-- reply 92.2 µM

-- ask Look up TGI for this compound: `CN(C)/C=C/c1c2c(nc3ccccc13)C(=O)c1ccccc1C2=O`
-- reply 0.55 µM

-- ask // TGI lookup, key: `CC(=O)c1ccccc1NS(=O)(=O)c1ccc2nc(C)n(NS(=O)(=O)c3ccccc3C(C)=O)c(=O)c2c1`
-- reply > 100 µM

Taken from PubChem BioAssay (NCI).
